Tested on: E. faecalis ATCC 10541
experiment notes: Checkerboard microdilution MIC with PFOB, Table 2
Assay type: cell-based
assay context: E. faecalis ATCC 10541; PFOB 0.5 mg/L
Here the recorded MIC of partner antibiotic in the presence of PFOB at 0.5 mg/L is given for each entry.
value kind: MIC of partner antibiotic in the presence of PFOB at 0.5 mg/L (µg/mL)

CN[C@H](CC(C)C)C(=O)N[C@H]1C(=O)N[C@@H](CC(N)=O)C(=O)N[C@H]2C(=O)N[C@H]3C(=O)N[C@H](C(=O)N[C@H](C(=O)O)c4cc(O)cc(O)c4-c4cc3ccc4O)[C@H](O)c3ccc(c(Cl)c3)Oc3cc2cc(c3O[C@@H]2O[C@H](CO)[C@@H](O)[C@H](O)[C@H]2O[C@H]2C[C@](C)(N)[C@H](O)[C@H](C)O2)Oc2ccc(cc2Cl)[C@H]1O :: 2
CC1(C)S[C@@H]2[C@H](NC(=O)[C@H](N)c3ccccc3)C(=O)N2[C@H]1C(=O)O :: 0.25
C[C@@H](O)[C@H]1C(=O)N2C(C(=O)O)=C(SCCN=CN)C[C@H]12 :: 1

====

The reader will find reported MIC of partner antibiotic in the presence of PFOB at 1 mg/L values listed item by item below.
Tested on: E. faecalis ATCC 29212
experiment notes: Checkerboard microdilution MIC with PFOB, Table 2
Format: cell-based
assay context: E. faecalis ATCC 29212; PFOB 1 mg/L
value kind: MIC of partner antibiotic in the presence of PFOB at 1 mg/L (µg/mL)

CC1(C)S[C@@H]2[C@H](NC(=O)[C@H](N)c3ccccc3)C(=O)N2[C@H]1C(=O)O :: 1
CN[C@H](CC(C)C)C(=O)N[C@H]1C(=O)N[C@@H](CC(N)=O)C(=O)N[C@H]2C(=O)N[C@H]3C(=O)N[C@H](C(=O)N[C@H](C(=O)O)c4cc(O)cc(O)c4-c4cc3ccc4O)[C@H](O)c3ccc(c(Cl)c3)Oc3cc2cc(c3O[C@@H]2O[C@H](CO)[C@@H](O)[C@H](O)[C@H]2O[C@H]2C[C@](C)(N)[C@H](O)[C@H](C)O2)Oc2ccc(cc2Cl)[C@H]1O :: 2
C[C@@H](O)[C@H]1C(=O)N2C(C(=O)O)=C(SCCN=CN)C[C@H]12 :: 0.5

====

Tested on: E.faecalis 78097 (van B)
experiment notes: Checkerboard microdilution MIC with PFOB, Table 2
Type: cell-based
assay context: E.faecalis 78097 (van B); PFOB 0.5 mg/L
value kind: MIC of partner antibiotic in the presence of PFOB at 0.5 mg/L (µg/mL)

CN[C@H](CC(C)C)C(=O)N[C@H]1C(=O)N[C@@H](CC(N)=O)C(=O)N[C@H]2C(=O)N[C@H]3C(=O)N[C@H](C(=O)N[C@H](C(=O)O)c4cc(O)cc(O)c4-c4cc3ccc4O)[C@H](O)c3ccc(c(Cl)c3)Oc3cc2cc(c3O[C@@H]2O[C@H](CO)[C@@H](O)[C@H](O)[C@H]2O[C@H]2C[C@](C)(N)[C@H](O)[C@H](C)O2)Oc2ccc(cc2Cl)[C@H]1O :: 64
CO/N=C(\C(=O)N[C@@H]1C(=O)N2C(C(=O)O)=C(COC(N)=O)CS[C@H]12)c1ccco1 :: 64
CC1(C)S[C@@H]2[C@H](NC(=O)[C@H](N)c3ccccc3)C(=O)N2[C@H]1C(=O)O :: 0.5
C[C@@H](O)[C@H]1C(=O)N2C(C(=O)O)=C(SCCN=CN)C[C@H]12 :: 1

====

# key: entry, value: MIC
Tested on: E. faecalis 5659 (vanA)
experiment notes: Checkerboard microdilution MIC with PFOB, Table 2
Assay type: cell-based
assay context: Enterococcus faecalis; E. faecalis 5659 (vanA); partner antibiotic alone; read-out: MIC (alone) of Partner
Text: The aim of the study was to detect any synergy between PFOB and the other antibiotics. For the purposes of the study, synergy was defined in accordance with the FIC (fractional inhibitory concentration) index, as disclosed by Lorian (1991, In “Antibiotics in Laboratory Medicine” 3rd edition, Eds. Williams & Wilkins; esp. p 434-443). […]
value kind: MIC (µg/mL)

C[C@@H](O)[C@H]1C(=O)N2C(C(=O)O)=C(SCCN=CN)C[C@H]12 :: 0.25
CC1(C)S[C@@H]2[C@H](NC(=O)[C@H](N)c3ccccc3)C(=O)N2[C@H]1C(=O)O :: 1

====

Entries annotated with measured MIC of partner antibiotic in the presence of PFOB at 1 mg/L
Tested on: E. faecalis 5659 (vanA)
experiment notes: Checkerboard microdilution MIC with PFOB, Table 2
Format: cell-based
assay context: E. faecalis 5659 (vanA); PFOB 1 mg/L
value kind: MIC of partner antibiotic in the presence of PFOB at 1 mg/L

CC1(C)S[C@@H]2[C@H](NC(=O)[C@H](N)c3ccccc3)C(=O)N2[C@H]1C(=O)O :: 2 µg/mL
O=C(O)[C@H]1/C(=C/CO)O[C@@H]2CC(=O)N21 :: >64 µg/mL
CC(C)(O/N=C(\C(=O)N[C@@H]1C(=O)N2C(C(=O)[O-])=C(C[n+]3ccccc3)CS[C@H]12)c1csc(N)n1)C(=O)O :: >64 µg/mL
C[C@@H](O)[C@H]1C(=O)N2C(C(=O)O)=C(SCCN=CN)C[C@H]12 :: 1 µg/mL
CO/N=C(\C(=O)N[C@@H]1C(=O)N2C(C(=O)O)=C(COC(N)=O)CS[C@H]12)c1ccco1 :: >64 µg/mL
CN[C@H](CC(C)C)C(=O)N[C@H]1C(=O)N[C@@H](CC(N)=O)C(=O)N[C@H]2C(=O)N[C@H]3C(=O)N[C@H](C(=O)N[C@H](C(=O)O)c4cc(O)cc(O)c4-c4cc3ccc4O)[C@H](O)c3ccc(c(Cl)c3)Oc3cc2cc(c3O[C@@H]2O[C@H](CO)[C@@H](O)[C@H](O)[C@H]2O[C@H]2C[C@](C)(N)[C@H](O)[C@H](C)O2)Oc2ccc(cc2Cl)[C@H]1O :: >64 µg/mL

====

Test system: E. faecalis ATCC 29212
experiment notes: Checkerboard microdilution MIC with PFOB, Table 2
Format: cell-based
assay context: Enterococcus faecalis, ATCC29212; E. faecalis ATCC 29212; partner antibiotic alone; read-out: MIC (alone) of Partner
value kind: MIC (µg/mL)

CC1(C)S[C@@H]2[C@H](NC(=O)[C@H](N)c3ccccc3)C(=O)N2[C@H]1C(=O)O [Ampicillin, ampicillin] :: 0.5
C[C@@H](O)[C@H]1C(=O)N2C(C(=O)O)=C(SCCN=CN)C[C@H]12 [Imipenem, imipenem] :: 0.5
CO/N=C(\C(=O)N[C@@H]1C(=O)N2C(C(=O)O)=C(COC(N)=O)CS[C@H]12)c1ccco1 [Cefuroxime, cefuroxime] :: 32

====

Tested on: E. faecalis ATCC 29212
experiment notes: Checkerboard microdilution MIC with PFOB, Table 2
Format: cell-based
assay context: E. faecalis ATCC 29212; PFOB 16 mg/L
Measured MIC of partner antibiotic in the presence of PFOB at 16 mg/L values are reported for all entries that follow.
value kind: MIC of partner antibiotic in the presence of PFOB at 16 mg/L

CO/N=C(\C(=O)N[C@@H]1C(=O)N2C(C(=O)O)=C(COC(N)=O)CS[C@H]12)c1ccco1 :: 1 µg/mL
CN[C@H](CC(C)C)C(=O)N[C@H]1C(=O)N[C@@H](CC(N)=O)C(=O)N[C@H]2C(=O)N[C@H]3C(=O)N[C@H](C(=O)N[C@H](C(=O)O)c4cc(O)cc(O)c4-c4cc3ccc4O)[C@H](O)c3ccc(c(Cl)c3)Oc3cc2cc(c3O[C@@H]2O[C@H](CO)[C@@H](O)[C@H](O)[C@H]2O[C@H]2C[C@](C)(N)[C@H](O)[C@H](C)O2)Oc2ccc(cc2Cl)[C@H]1O :: 1 µg/mL
CC(C)(O/N=C(\C(=O)N[C@@H]1C(=O)N2C(C(=O)[O-])=C(C[n+]3ccccc3)CS[C@H]12)c1csc(N)n1)C(=O)O :: 8 µg/mL
CC1(C)S[C@@H]2[C@H](NC(=O)[C@H](N)c3ccccc3)C(=O)N2[C@H]1C(=O)O :: 1 µg/mL
O=C(O)[C@H]1/C(=C/CO)O[C@@H]2CC(=O)N21 :: >64 µg/mL
C[C@@H](O)[C@H]1C(=O)N2C(C(=O)O)=C(SCCN=CN)C[C@H]12 :: 0.125 µg/mL

====

Test system: E.faecalis 78097 (van B)
experiment notes: Checkerboard microdilution MIC with PFOB, Table 2
Type: cell-based
assay context: E.faecalis 78097 (van B); PFOB 8 mg/L
MIC of partner antibiotic in the presence of PFOB at 8 mg/L strictly under 20 µg/mL means True; at 20 µg/mL or over means False.

C[C@@H](O)[C@H]1C(=O)N2C(C(=O)O)=C(SCCN=CN)C[C@H]12 :: True
CO/N=C(\C(=O)N[C@@H]1C(=O)N2C(C(=O)O)=C(COC(N)=O)CS[C@H]12)c1ccco1 :: True
CC1(C)S[C@@H]2[C@H](NC(=O)[C@H](N)c3ccccc3)C(=O)N2[C@H]1C(=O)O :: True
O=C(O)[C@H]1/C(=C/CO)O[C@@H]2CC(=O)N21 :: False
CN[C@H](CC(C)C)C(=O)N[C@H]1C(=O)N[C@@H](CC(N)=O)C(=O)N[C@H]2C(=O)N[C@H]3C(=O)N[C@H](C(=O)N[C@H](C(=O)O)c4cc(O)cc(O)c4-c4cc3ccc4O)[C@H](O)c3ccc(c(Cl)c3)Oc3cc2cc(c3O[C@@H]2O[C@H](CO)[C@@H](O)[C@H](O)[C@H]2O[C@H]2C[C@](C)(N)[C@H](O)[C@H](C)O2)Oc2ccc(cc2Cl)[C@H]1O :: False
CC(C)(O/N=C(\C(=O)N[C@@H]1C(=O)N2C(C(=O)[O-])=C(C[n+]3ccccc3)CS[C@H]12)c1csc(N)n1)C(=O)O :: True

Values compiled from patent US20040176349A1.
